Where do these numbers come from? They come from patent US20240165244A1.

# Target: SMARCA4 (Homo sapiens, UniProt P51532)
# Construct: SMARCA4-HiBiT knock-in Hela monoclonal cell (CS3023226); host or cells: HeLa monoclonal cells with heterozygous HiBiT knock-in at the endogenous SMARCA4 locus
# Sequence (P51532 whole entry): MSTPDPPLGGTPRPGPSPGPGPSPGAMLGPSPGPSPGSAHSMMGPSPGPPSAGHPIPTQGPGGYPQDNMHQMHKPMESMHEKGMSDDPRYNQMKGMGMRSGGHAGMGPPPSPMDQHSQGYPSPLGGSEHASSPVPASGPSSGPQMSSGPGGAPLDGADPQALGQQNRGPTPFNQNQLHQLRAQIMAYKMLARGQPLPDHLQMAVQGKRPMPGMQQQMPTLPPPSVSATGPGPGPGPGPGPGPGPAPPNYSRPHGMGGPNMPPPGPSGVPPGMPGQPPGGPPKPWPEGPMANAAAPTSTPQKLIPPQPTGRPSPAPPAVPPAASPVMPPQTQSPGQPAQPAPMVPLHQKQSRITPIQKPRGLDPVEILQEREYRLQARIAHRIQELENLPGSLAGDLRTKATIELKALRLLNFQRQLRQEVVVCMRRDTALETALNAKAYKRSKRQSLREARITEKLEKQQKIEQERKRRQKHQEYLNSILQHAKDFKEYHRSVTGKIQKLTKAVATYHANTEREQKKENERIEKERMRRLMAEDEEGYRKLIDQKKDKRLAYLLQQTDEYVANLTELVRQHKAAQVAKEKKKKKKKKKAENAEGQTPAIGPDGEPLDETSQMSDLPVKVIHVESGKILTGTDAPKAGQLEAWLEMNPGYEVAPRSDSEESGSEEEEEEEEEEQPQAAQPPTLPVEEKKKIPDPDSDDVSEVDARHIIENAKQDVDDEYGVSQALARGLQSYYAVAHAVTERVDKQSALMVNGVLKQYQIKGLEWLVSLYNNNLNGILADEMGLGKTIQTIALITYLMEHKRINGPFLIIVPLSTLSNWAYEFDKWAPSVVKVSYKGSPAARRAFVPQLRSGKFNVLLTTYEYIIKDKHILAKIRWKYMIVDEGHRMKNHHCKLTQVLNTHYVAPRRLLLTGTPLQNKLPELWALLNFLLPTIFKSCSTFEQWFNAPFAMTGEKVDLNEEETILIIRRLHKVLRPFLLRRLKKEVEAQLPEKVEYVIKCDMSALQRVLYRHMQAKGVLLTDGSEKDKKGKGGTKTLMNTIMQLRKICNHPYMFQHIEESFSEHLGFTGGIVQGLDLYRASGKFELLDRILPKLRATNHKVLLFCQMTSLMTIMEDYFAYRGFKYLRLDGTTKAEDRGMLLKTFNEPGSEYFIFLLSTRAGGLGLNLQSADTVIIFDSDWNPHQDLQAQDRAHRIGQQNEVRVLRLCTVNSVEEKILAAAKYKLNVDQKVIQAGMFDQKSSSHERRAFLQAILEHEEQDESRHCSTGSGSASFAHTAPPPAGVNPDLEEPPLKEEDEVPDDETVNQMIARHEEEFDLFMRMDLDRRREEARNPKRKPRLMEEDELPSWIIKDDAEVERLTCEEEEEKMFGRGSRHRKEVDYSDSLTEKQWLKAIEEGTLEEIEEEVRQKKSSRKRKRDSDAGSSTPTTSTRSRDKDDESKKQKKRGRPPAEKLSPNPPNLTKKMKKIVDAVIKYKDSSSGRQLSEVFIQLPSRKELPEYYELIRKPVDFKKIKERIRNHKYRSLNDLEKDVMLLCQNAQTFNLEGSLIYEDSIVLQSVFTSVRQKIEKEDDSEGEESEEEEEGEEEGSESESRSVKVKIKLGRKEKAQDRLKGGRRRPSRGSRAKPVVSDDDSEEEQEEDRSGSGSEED
# Measurement protocol: SMARCA4 HiBiT degradation assay in HeLa cells
# Format: cell-based
# Condition details: 18 hours, highest concentration 10 μM
Please respond with reported Dmax for every item in the list.

Compound | Target | Dmax
Cc1cc(CN2CCN(c3ccc4c(c3)C(=O)N(C3CCC(=O)NC3=O)C4)CC2)ccc1O[C@@H]1C[C@@H]2CNc3nnc(-c4cc(F)cc(F)c4O)cc3N2C1 (some centres unmarked) | SMARCA4 (Homo sapiens, UniProt P51532) | > 75%
CC[C@@]12CNc3nnc(-c4cccc(F)c4O)cc3N1C[C@H](Oc1cnc(CN3CCN(c4ccc5c(c4)CN([C@H]4CCC(=O)NC4=O)C5)CC3)c(F)c1)C2 | SMARCA4 (Homo sapiens, UniProt P51532) | < 50%
Cc1cc(CN2CCN(c3ccc4c(c3)C(=O)N([C@H]3CCC(=O)NC3=O)C4)CC2)c(C)nc1O[C@H]1CN2c3cc(-c4cccc(F)c4O)nnc3NC[C@@]2(C(F)F)C1 | SMARCA4 (Homo sapiens, UniProt P51532) | < 50%

For every record below, what is its Dmax?
1. O=C1CCC(N2Cc3ccc(N4CCN(Cc5cnc(S[C@@H]6C[C@@H]7CNc8nnc(-c9cc(F)cc(F)c9O)cc8N7C6)nc5)CC4)cc3C2=O)C(=O)N1 (some centres unmarked)
2. CC[C@@]12CNc3nnc(-c4cccc(F)c4O)cc3N1C[C@H](Oc1ncc(CN3CCN(c4ccc5c(c4)C(=O)N(C4CCC(=O)NC4=O)C5)CC3)c(C)c1F)C2 (some centres unmarked)

// result
["> 75%", "50 to 75%"]
